Reference source for all entries: a melting point compilation (Tetko et al.; mined from patent text by program, amines drawn as free bases though some values may be those of a salt)

So I've got a bunch of compounds here, and I need their melting point values.

O=C(C(=Cc1ccccc1)c1ccccc1)c1ccc(O)cc1 | 186 to 190 °C
CC(C)c1cccc(C(C)C)c1NC(=O)C(Br)c1ccccc1 (centres undefined) | 207 to 210 °C
O=C1CCCC2=C1C(c1ccccc1)C1=C(CCCC1)N2 (centres undefined) | 252 to 254 °C

Now turn to the next compound.
Task: Would you mind telling me what melting point value was observed for Cc1c(/C=C2\COc3ccc4ccccc4c3C2=O)ncn1C(c1ccccc1)(c1ccccc1)c1ccccc1 ?
Output: 164 to 167 °C

----------
recordedMetric: melting point

CC1(C)CC(=C(c2ccc(O)cc2)c2ccc(CCCO)cc2)CC(C)(C)C1 | 160 to 161 °C
O=C(O)C1Cc2[nH]c3ccc(OCc4ccccc4)cc3c2C1 (configuration not stated) | 161 to 163 °C
CCOC(=O)c1ccc(Cn2cnc3cccnc32)cc1 | 104 to 106 °C
COc1ccccc1CNc1ccc2cc(Nc3nc(C)cc(C)n3)ccc2n1 | 158 °C
O=CC1c2ccccc2C(C=O)c2cc(Cl)ccc21 (configuration not stated) | 113 to 115 °C

I would be grateful if you could provide melting point for each of the following entries.
1. Oc1cccc(-c2nc(COc3ccc(CCCn4ccnc4)cc3)co2)c1
2. O=C(O)CCc1cn(Cc2ccc(OCc3cccs3)cc2)cc1-c1ccccc1

Output:
1: 164 to 165 °C; 2: 127 to 128 °C

----------
So I've got a bunch of compounds here, and I need their melting point values.

Reference set, count: 3
CCOC(=O)c1cc2ccc(F)c(C)c2[nH]1 | 149 °C
CC1(C)CCC(Br)(C(Br)c2ccc(Cl)cc2)C(=O)C1 (centres undefined) | 114 to 115 °C
c1ccc2nc(COc3cccc4ccccc34)ccc2c1 | 99 to 101 °C

I would be grateful if you could provide melting point for each of the following entries.
1. O=C(c1ccc(Cl)cc1)c1ccc2c(c1)C(c1cccc(Cl)c1)=NCc1nnnn1-2
2. COc1ccc(C2COc3cc(OC(=O)C(C)(C)C)ccc3C2(O)Cc2ccc(OCc3ccccc3)cc2)cc1 (centres undefined)
3. COc1cc(Nc2nccc(-c3cn(S(=O)(=O)c4ccccc4)c4ccccc34)n2)cc(OC)c1OC

Output:
["220 °C", "104 to 111 °C", "202 °C"]

I would be grateful if you could provide melting point for each of the following entries.
1. CCc1cc(C(=O)c2ccccc2Cl)c(-n2cnnc2CNS(=O)(=O)c2ccc3ccccc3c2)s1
2. COC(=O)CCc1ccc(-n2c(C)cn(-c3ccc(C#N)cc3)c2=O)cc1
3. CCC(=O)OCc1c(C)cc([N+](=O)[O-])c(NC(CC)CC)c1[N+](=O)[O-]
4. CCOc1ccc(Nc2ncc3c(n2)N(c2ccccc2)C(=O)N(c2c(Cl)cccc2Cl)C3)cc1
5. O=C(NC1CCN(Cc2ccccc2)CC1)c1ccc(Nc2c(C(=O)NC3CCN(Cc4ccccc4)CC3)cnc3cc(Cl)ccc23)cc1
6. COc1cc(CN2CCNC(CO)C2)cc(OC)c1OC (centres undefined)
7. O=c1c(CCc2nc3ccccc3s2)cc2cccnc2n1-c1cccc([N+](=O)[O-])c1

Output:
1: 165 to 167 °C; 2: 168 to 170 °C; 3: 27 to 29 °C; 4: 224 to 226 °C; 5: 230 to 232 °C; 6: 93 °C; 7: 178 to 179 °C

I would be grateful if you could provide melting point for each of the following entries.
1. COc1ccc(-n2c(=O)[nH]c3cc(Cl)cc(Cl)c3c2=O)cc1
2. CCCN(CCCCNc1ncc(Cc2ccnc(O)c2)c(=O)[nH]1)c1ccccn1
3. COc1ccc(CCc2ccncc2N)cc1OC1CCCC1
4. Nc1ccc(C(F)(F)F)cc1S(N)(=O)=O
5. O=C(Nc1ccc(C(=O)N2CC(C(=O)O)Cc3ccccc32)cc1)c1cc(Cl)cc(Cl)c1 (centres undefined)

Output:
294 to 296 °C
138 to 140 °C
108 to 110 °C
142 to 143 °C
221 to 223 °C

Task: Would you mind telling me what melting point value was observed for CN1CCC(OC2c3cccc(CCc4ccccc4)c3CCn3cc(-c4ccccc4)nc32)CC1 (centres undefined) ?
Output: 67 °C

----------
So I've got a bunch of molecules here, and I need their melting point values.
One number for each entry, in °C.

Reference set, count: 2
Cc1c(C(=O)Nc2ccc(N3CCC(N4CCSCC4)CC3)c(C#N)c2)cnn1-c1ccc(Cl)cc1 | 256
O[C@@H]1c2ccccc2CC[C@H]1N1CCC(O)(c2ccccc2)CC1 (relative stereo) | 184

Now turn to the next molecule.
Task: Would you mind telling me what melting point value was observed for C=CC(CC(O)C(CC1CCCCC1)NC(=O)C(Cc1c[nH]cn1)NC(=O)C(Cc1ccccc1)Cc1ccccc1)C(C)C (configuration not stated) ?
Output: 98

----------
recordedMetric: melting point

Reference set, count: 3
O=C(NCc1ccc(Cl)cc1)c1cc(Cl)c2cccnc2c1O | 163 to 166 °C
CCOC(=O)CN1C[C@@H](C(N)=O)N(CC(=O)OCC)C[C@@H]1C(N)=O | > 260 °C
NCC1Cc2cc(Cl)cc(-c3cc(Cl)ccc3Cl)c2O1 (configuration not stated) | 160 to 162 °C

I would be grateful if you could provide melting point for each of the following entries.
1. CCn1cc(CN(C(=O)C2CCCc3cc(OC)ccc32)c2ccc(C(C)C)cc2)cn1 (configuration not stated)
2. CCOCn1c(Cc2ccccc2)c(C(C)C)c(=O)[nH]c1=O

Output:
1: 111 to 113 °C; 2: 111 °C

I would be grateful if you could provide melting point for each of the following entries.
1. Cc1cccc(C)c1NCCNCC(O)COc1ccc(F)cc1 (configuration not stated)
2. CN(CCCl)C(=O)Nc1ccc([N+](=O)[O-])cc1C(F)(F)F

Output:
105 to 106 °C
86 to 87 °C

----------
So I've got a bunch of compounds here, and I need their melting point values.
Answers are plain numbers, in °C.

CC(=O)N1CCC(C(=O)c2ccc(F)cc2F)CC1 | 97
COc1cccc(N(CC(=O)OC(C)(C)C)C(=O)CNC(=O)Nc2cccc(C)c2)c1 | 60
Fc1ccc(-c2nc3ccccc3nc2-c2ccc(F)cc2)cc1 | 132
O=[N+]([O-])c1cc(Br)cc(F)c1O | 62

I would be grateful if you could provide melting point for each of the following entries.
1. CCOC(=O)NN=C(CC)c1ccncc1
2. O=Cc1c(Cl)ccc2cc(Cl)cnc12

Output:
[147, 208]

----------
So I've got a bunch of molecules here, and I need their melting point values.

CCCc1nn(C)c2c(=O)n(CCCOc3ccc(SC(C)(C)C(=O)O)cc3)c(C)nc12 | 140 to 142 °C

I would be grateful if you could provide melting point for each of the following entries.
1. O=C1C(=O)c2ccccc2C2=C1SCC1(CCN(S(=O)(=O)c3cccc(Cl)c3)CC1)O2
2. CCc1nc(OC)c(NC(=O)N2CCN(c3cc(OC)cc(OC)c3)CC2)cc1C(=O)Nc1cc(CO)cc(Nc2c3ccccc3nc3ccccc23)c1
3. FC(F)(F)c1cccc(-c2cc(C(F)(F)F)n3cnc(-c4ccncc4)c3n2)c1
4. CCCc1nc(N)nc(N)c1N1CCN(Cc2ccccc2)CC1

Output:
["255 to 256 °C", "170 to 172 °C", "258 °C", "157 to 160 °C"]

I would be grateful if you could provide melting point for each of the following entries.
1. Fc1ccc(-c2cc(Cl)c3cc(Cl)ccc3n2)cc1
2. CCCc1c(C(C)C)nc(C(C)C)c(C(C)O)c1-c1ccc(F)cc1O (centres undefined)

Output:
1: 150 to 156 °C; 2: 152 to 153 °C

I would be grateful if you could provide melting point for each of the following entries.
1. O=c1[nH]c(Cc2ccc(OCCc3coc(-c4ccccc4)n3)cc2)no1
2. N#CCc1c(-c2ccccc2)sc2ccc(Cl)cc12
3. CS(=O)(=O)N1CCN(S(=O)(=O)C=Cc2ccccc2)C(C(=O)NO)C1 (centres undefined)
4. O=C(CCCCOc1ccc(-c2ccccc2)cc1)NO
5. CSc1nc(NN)c(C#N)c(N2CCc3ccccc3CC2)n1
6. COc1ccc(C2(C#N)CCC(=C3SCCCS3)CC2)cc1OC1CCCC1 (centres undefined)
7. COc1cccc([C@H]2O[C@H](CC(=O)Nc3cccc(CCC(=O)O)c3)C(=O)N(CC(C)(C)CO)c3ccc(Cl)cc32)c1OC

Output:
154 to 158 °C
158 to 160 °C
94 to 99 °C
152 to 154 °C
> 200 °C
115 to 116 °C
141 to 144 °C

I would be grateful if you could provide melting point for each of the following entries.
1. O=C(NC(c1ccccc1)c1cc2ccncc2[nH]1)c1ccccc1 (centres undefined)
2. CN(C)CCn1c(=O)c(=NO)nc(-c2ccccc2)c2ccccc21
3. O=C(O)[C@@H](Cc1ccccc1)Oc1c(Br)cc(-c2c3ccccc3c(Br)c3sc4ccccc4c23)cc1Br
4. CC[C@H](C)[C@H](OCc1ccccc1)[C@H]1[C@H]([N+](=O)[O-])[C@H](C2CCCCC2)N[C@@H]1C(=O)O

Output:
["206 to 208 °C", "232 to 234 °C", "140 to 142 °C", "194 to 196 °C"]

I would be grateful if you could provide melting point for each of the following entries.
1. CN(C)S(=O)(=O)c1ccc(Oc2ccc([N+](=O)[O-])cc2C#N)cc1
2. CC(C)Oc1ccc(CCCOc2cc(CCC(=O)O)n(C)n2)c(Oc2ncc(Cl)cc2Cl)c1
3. Cn1c([N+](=O)[O-])cnc1C1=NO[C@H]2CCCCC[C@@H]12 (relative stereo)
4. O=[N+]([O-])c1cccc(-c2nc(-c3ccccc3)cc3cccnc23)c1
5. N#Cc1cccc(C(=O)c2ccccc2)c1
6. COc1ccc2c(c1)N(C)C(=O)C2C (centres undefined)
7. CCOc1ccc(-c2ccc(C#N)cc2)cc1C=O
8. COC(=O)CCCc1cc2nc(Cl)ccc2n1S(=O)(=O)c1ccc(C(C)(C)C)cc1

Output:
222 to 223 °C
77 to 78 °C
93 to 95 °C
172 to 175 °C
84 to 85 °C
44 to 46 °C
110 to 121 °C
107 °C

I would be grateful if you could provide melting point for each of the following entries.
1. Cc1ncccc1Oc1ccc(C(=N)Nc2cc(Cl)cc(NC(=O)C=Cc3ccccc3C(F)(F)F)c2)cc1
2. Cc1cccc(OCCF)c1S(N)(=O)=O

Output:
1. 114 to 119 °C
2. 103 °C

Task: Would you mind telling me what melting point value was observed for O=C(NCc1ncc(Cl)cc1Cl)c1c(Cl)cccc1Cl ?
Output: 161 to 165 °C
